Molecular target: T1, human Trop-2 expressed on cell surface (human, UniProt P09758 27-323)
T1 sequence (looked up): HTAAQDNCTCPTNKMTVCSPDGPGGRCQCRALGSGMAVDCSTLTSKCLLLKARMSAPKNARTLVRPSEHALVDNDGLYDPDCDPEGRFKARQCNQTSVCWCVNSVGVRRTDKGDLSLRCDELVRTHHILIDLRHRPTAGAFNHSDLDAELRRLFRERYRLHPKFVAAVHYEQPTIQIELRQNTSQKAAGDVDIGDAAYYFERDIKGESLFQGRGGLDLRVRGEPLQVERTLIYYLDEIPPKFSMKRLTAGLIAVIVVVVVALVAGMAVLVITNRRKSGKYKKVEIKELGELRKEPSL
Assay: cell-based or functional assay
Observation Type: Internalization %, MDA-MB-231, 2 µg/ml, 2 h (%)
Report as a plain number; the unit % is understood.

Binder: 9D7 (antibody, V domains shown, Rabbit-derived clone; LEM construct: VH + rabbit IgG CH1 + human IgG1 CH2-CH3) VH: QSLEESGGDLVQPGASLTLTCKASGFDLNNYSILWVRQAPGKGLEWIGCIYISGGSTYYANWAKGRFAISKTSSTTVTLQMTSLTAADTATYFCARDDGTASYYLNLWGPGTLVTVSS VL: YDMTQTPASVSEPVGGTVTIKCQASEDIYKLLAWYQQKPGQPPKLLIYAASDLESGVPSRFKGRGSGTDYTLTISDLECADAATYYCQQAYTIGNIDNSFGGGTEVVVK
Observed Measurement: 42
--
Binder: 65D5 (antibody, V domains shown, Rabbit-derived clone; LEM construct: VH + rabbit IgG CH1 + human IgG1 CH2-CH3) VH: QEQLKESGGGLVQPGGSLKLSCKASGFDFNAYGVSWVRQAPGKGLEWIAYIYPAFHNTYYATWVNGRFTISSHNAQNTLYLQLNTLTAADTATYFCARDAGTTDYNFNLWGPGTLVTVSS VL: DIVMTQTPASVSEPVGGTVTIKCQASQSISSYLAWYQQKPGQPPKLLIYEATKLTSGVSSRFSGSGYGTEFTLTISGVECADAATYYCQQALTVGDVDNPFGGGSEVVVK
Observed Measurement: 31
--
Binder: 9F7 (antibody, V domains shown, Rabbit-derived clone; LEM construct: VH + rabbit IgG CH1 + human IgG1 CH2-CH3) VH: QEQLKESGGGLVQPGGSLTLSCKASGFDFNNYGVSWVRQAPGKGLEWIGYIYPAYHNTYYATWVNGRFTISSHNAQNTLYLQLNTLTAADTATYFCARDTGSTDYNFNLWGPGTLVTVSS VL: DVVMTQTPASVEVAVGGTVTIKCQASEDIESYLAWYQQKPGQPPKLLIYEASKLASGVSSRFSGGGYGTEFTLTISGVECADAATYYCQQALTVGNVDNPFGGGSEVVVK
Observed Measurement: 28
--
Binder: 62E3 (antibody, V domains shown, Rabbit-derived clone; LEM construct: VH + rabbit IgG CH1 + human IgG1 CH2-CH3) VH: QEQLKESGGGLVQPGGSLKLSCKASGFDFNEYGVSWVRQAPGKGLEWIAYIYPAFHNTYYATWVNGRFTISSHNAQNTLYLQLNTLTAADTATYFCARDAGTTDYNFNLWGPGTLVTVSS VL: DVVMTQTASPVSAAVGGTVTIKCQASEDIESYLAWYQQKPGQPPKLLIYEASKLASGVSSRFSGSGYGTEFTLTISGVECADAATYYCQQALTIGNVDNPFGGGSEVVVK
Observed Measurement: 43

If you can, please state the reported Internalization %, MDA-MB-231, 2 µg/ml, 2 h value of 10A9 (antibody, V domains shown, Rabbit-derived clone; LEM construct: VH + rabbit IgG CH1 + human IgG1 CH2-CH3) VH: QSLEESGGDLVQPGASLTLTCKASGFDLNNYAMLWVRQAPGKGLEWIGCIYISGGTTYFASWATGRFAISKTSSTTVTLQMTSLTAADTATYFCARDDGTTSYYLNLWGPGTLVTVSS VL: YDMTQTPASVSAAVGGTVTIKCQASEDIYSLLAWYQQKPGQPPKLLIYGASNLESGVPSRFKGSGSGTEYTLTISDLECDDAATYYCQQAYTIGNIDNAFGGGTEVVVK .
38
